Molecular target: T1, SARS-CoV-2 receptor-binding domain (RBD), S protein residues 319-539 (SARS-CoV-2, UniProt P0DTC2 319-539)
T1 construct: also called WT RBD; SARS-COV-2 RBD
Assay: ELISA on coated RBD
Assignment: determine reported EC50 for the given binders.
Give bare numbers, in ng/mL.

binder	unit_annotation	EC50
C892 (antibody, V domains shown) VH: EVQLVESGGGLVKPGGSLKVSCTASGFTFTDAWMSWVRQAPGKGLEWVGRIKSRAYGGTTDYGAPVQGRFTISRDDSINTLYLQMNSLTAEDTAVYYCTSQLWLRGPGDYWGQGTLVTVSS VL: NFMLTQPHSVSESPGKTVTISCTGSSGSIASNYVHWYQQRPGGAPTTVIYEDNQRPSGVPDRFSGSIDISSNSASLTISGLKTEDEGDYYCQSYDSGVNWVFGGGTKLTVL	ng/mL	2.9
C891 (antibody, V domains shown) VH: EVQLVESGGGLVKPGGSLRLSCAVSGFTFSNVWMSWVRQAPGKGLEWVGRIKSKTDGGTTDYAAPVKGRFTISRDDSKNTLYLQMNSLKTEDTAVYYCTSQLWLRGPGDYWGQGTLVTVSS VL: NFMLTQPHSVSESPGKTVTISCTGSSGSIASNYVQWYQQRPGSAPTTVIYEDNQRPSGVPDRFSGSIDSSSNSASLTISGLKTEDEADYYCQSYDSSLNWVFGGGTKLTVL	ng/mL	1.44

Q) State its EC50 for this binder: C889 (antibody, V domains shown) VH: EVQLVESGGGLVQPGGSLRLSCAVSGFTVSSNYMTWVRQAPGKGLEWVSLIYSGTSAFYADSVKGRFTISRDNSKNTLYLQMSSLRVNDTAIYYCARDLRKDDGYSYGAFDYWGQGTLVTVSS VL: QSALTQPASVSGSPGQSITISCSGTSSDVGAHNYVSWYQQYPGKAPKLMIFDVTDRPSGVSNRFSGSKSGNTASLTISGLQAEDEADYYCTSYTTNRSWVFGGGTKVTVL
A) 4.25
